Catalogue of MIC values
- Tested on: Escherichia coli (E. coli) strain CFT073 ATCC 700928
- Format: cell-based
- run parameters: ATCC 700928, 22 h
*1 amine or outer side, *2 acyl side, *3 side chain or, on linkers, in order; H or OH if unused. Where a SMILES comes first, the peptide text is derived from it. [ ]: non-standard residue; d: D form. The star is where a group is joined. X2 = CCCCCC[C@@H](OC[C@@H](C)N[*:1])[C@@H](C)C(=O)[*:2]; NMeL = CN[C@@H](CC(C)C)C(=O)O; Chg = N[C@H](C(=O)O)C1CCCCC1; Dap = NC[C@H](N)C(=O)O; X7 = NCC(O)C*
Expressed in µM, but write only the number.

# annotated cases, reported MIC shown
Asked: Provide measured MIC value, entry: CCCCCC[C@H]1OC[C@@H](C)NC(=O)[C@H](COCC(O)CN)NC(=O)[C@H](CN)NC(=O)[C@H](C2CCCCC2)NC(=O)[C@H](CC(C)C)N(C)C(=O)[C@@H]1C (stereo partly shown) [Example 173] (cyclo([Chg][Dap]S(X7)[X2][NMeL]))
Given back: 12

Asked: Provide measured MIC value, entry: Cc1ccc(C[C@H]2C(=O)N(C)[C@@H](CC(C)C)C(=O)N[C@@H](C3CCCCC3)C(=O)N[C@@H](CN)C(=O)N[C@@H]([C@H](C)O)C(=O)NCC(=O)O[C@@H]2CCC(F)(F)F)cc1
Given back: 71

Asked: Provide measured MIC value, entry: CCCCCCCCCC[C@H]1OC(=O)CNC(=O)[C@H]([C@H](C)O)NC(=O)[C@H](CN)NC(=O)[C@H]([C@H](C)CC)NC(=O)[C@H](CC(C)C)N(C)C(=O)[C@@H]1C
Given back: 3.1

---
Asked: Provide measured MIC value, entry: CCCCCC[C@H]1OC(=O)CNC(=O)[C@H]([C@H](C)O)NC(=O)[C@H](CN)NC(=O)[C@H](C2CCCCC2)NC(=O)[C@H](CC(C)C)N(C)C(=O)[C@@H]1CC1CCCCC1
Given back: 3.7

Asked: Provide measured MIC value, entry: CC(C)C[C@H]1C(=O)N[C@@H](C2CCCCC2)C(=O)N[C@@H](CN)C(=O)N[C@@H]([C@H](C)O)C(=O)NCC(=O)O[C@H](CCCCC(F)CF)[C@@H](C)C(=O)N1C (stereo partly shown)
Given back: 25

Asked: Provide measured MIC value, entry: CCCCCCCCCC[C@H]1OC(=O)[C@@H](C)NC(=O)[C@H]([C@H](C)O)NC(=O)[C@H](CO)NC(=O)[C@H]([C@@H](C)CC)NC(=O)[C@H](CC(C)C)N(C)C(=O)[C@@H]1C
Given back: 13

Asked: Provide measured MIC value, entry: CCCCCC[C@H]1OC[C@@H](C)NC(=O)[C@H]([C@H](C)O)NC(=O)[C@H](CN)NC(=O)[C@H](C2CCN(c3ccccc3)CC2)NC(=O)[C@H](CC(C)C)N(C)C(=O)[C@@H]1C
Given back: 8.8

Asked: Provide measured MIC value, entry: CCCCCCCCCC[C@H]1OC(=O)[C@H](C)NC(=O)[C@H]([C@H](C)O)NC(=O)[C@H](CN)NC(=O)[C@H]([C@H](C)CC)NC(=O)[C@H](CC(C)C)N(C)C(=O)[C@@H]1C
Given back: 3.1

Asked: Provide measured MIC value, entry: CCCCCCCCCC[C@H]1OC(=O)CNC(=O)[C@H](C2CCNCC2)NC(=O)[C@H](CO)NC(=O)[C@H]([C@@H](C)CC)NC(=O)[C@H](CC(C)C)N(C)C(=O)[C@@H]1C
Given back: 50

Asked: Provide measured MIC value, entry: CC[C@H](C)[C@@H]1NC(=O)[C@H](CC(C)C)N(C)C(=O)[C@H](C)[C@@H](CCCCC(C)(C)C)OC(=O)CNC(=O)[C@H]([C@H](C)O)NC(=O)[C@H](CO)NC1=O
Given back: 25
